# Tested system: Carbonyl reductase [NADPH] 1 (Homo sapiens) (UniProt P16152)
# Sequence (P16152 whole entry): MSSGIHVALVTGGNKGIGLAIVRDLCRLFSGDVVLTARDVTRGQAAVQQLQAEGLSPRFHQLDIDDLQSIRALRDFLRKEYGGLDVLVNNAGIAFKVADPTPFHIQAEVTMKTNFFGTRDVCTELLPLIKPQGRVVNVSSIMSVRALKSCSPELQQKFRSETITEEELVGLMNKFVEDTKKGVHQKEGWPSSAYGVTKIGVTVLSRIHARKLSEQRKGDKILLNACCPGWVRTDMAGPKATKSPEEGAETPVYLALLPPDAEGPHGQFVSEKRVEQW
# Experiment: Binding affinity to human recombinant carbonyl reductase 1 expressed in Escherichia coli assessed as NADPH oxidation at 200 uM relative to isatin
Observable: Activity (%)

smiles_notation=COc1ccc(-c2coc3cc(O)cc(O)c3c2=O)cc1 measurement=9.3
smiles_notation=O=c1cc(-c2ccccc2)oc2cc(O)cc(O)c12 measurement=16.3
smiles_notation=COc1cc(O)c2c(c1)oc(=O)c1c3cc(O)c(O)cc3oc21 measurement=5.8
smiles_notation=C[C@H]1CCCC(=O)CCC/C=C/c2cc(O)cc(O)c2C(=O)O1 measurement=5.7
smiles_notation=COc1cc(O)c2c(c1)/C=C/CC[C@H](C)C(=O)CCC[C@H](C)OC2=O measurement=1.5
smiles_notation=COc1cc2c(c(OC)c1)C(=O)O[C@@H](C)CCCC(=O)[C@@H](C)CC/C=C/2 measurement=31.3
smiles_notation=O=C1C[C@@H](c2ccc(O)cc2)Oc2cc(O)cc(O)c21 measurement=4.7

Values from ChEMBL document CHEMBL1140872
